# Tested system: AAV9 (adeno-associated virus serotype 9)
# Assay name: SPR, AAV on CM5 chip
Measurement label: pKd
For clarity, pKd is expressed as the negative log10 of concentration in mol/L.

Looking up A4-B2 (bispecific antibody) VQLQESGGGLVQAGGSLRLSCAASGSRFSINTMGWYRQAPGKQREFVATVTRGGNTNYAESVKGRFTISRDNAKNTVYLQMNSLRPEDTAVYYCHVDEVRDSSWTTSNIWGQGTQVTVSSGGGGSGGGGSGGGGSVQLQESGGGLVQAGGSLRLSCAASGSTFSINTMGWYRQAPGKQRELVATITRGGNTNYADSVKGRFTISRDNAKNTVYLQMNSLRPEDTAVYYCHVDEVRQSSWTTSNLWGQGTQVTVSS , I see its pKd listed as 8.08

Sample A4-C5 (bispecific antibody) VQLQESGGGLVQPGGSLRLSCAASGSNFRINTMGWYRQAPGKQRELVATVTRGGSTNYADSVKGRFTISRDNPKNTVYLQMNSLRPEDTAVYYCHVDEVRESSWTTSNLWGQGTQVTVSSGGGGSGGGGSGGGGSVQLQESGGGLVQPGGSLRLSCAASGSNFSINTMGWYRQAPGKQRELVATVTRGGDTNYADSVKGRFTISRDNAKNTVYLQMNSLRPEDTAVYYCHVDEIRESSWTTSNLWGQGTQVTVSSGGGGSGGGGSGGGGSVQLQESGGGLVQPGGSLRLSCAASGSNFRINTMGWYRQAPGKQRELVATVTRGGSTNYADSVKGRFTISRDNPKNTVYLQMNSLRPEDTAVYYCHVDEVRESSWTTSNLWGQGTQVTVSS ; pKd observed: 8.77

Measured pKd of A4-C1 (VHH) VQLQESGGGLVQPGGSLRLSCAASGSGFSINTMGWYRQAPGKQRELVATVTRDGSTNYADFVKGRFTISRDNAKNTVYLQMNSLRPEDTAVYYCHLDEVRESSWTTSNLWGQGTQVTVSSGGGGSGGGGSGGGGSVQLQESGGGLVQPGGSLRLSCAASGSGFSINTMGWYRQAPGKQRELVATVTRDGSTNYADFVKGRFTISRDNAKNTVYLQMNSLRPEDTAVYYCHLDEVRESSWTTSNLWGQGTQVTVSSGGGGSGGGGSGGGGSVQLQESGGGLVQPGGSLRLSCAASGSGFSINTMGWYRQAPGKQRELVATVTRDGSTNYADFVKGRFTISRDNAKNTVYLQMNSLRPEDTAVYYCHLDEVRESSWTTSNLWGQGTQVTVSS : 8.99

According to the records, this binder A4-C7 (bispecific antibody) VQLQESGGGLVQPGGSLRLSCAASGSNFSINTMGWYRQAPGKQRELVATVTRGGDTNYADSVKGRFTISRDNAKNTVYLQMNSLRPEDTAVYYCHVDEIRESSWTTSNLWGQGTQVTVSSGGGGSGGGGSGGGGSVQLQESGGGLVQPGGSLRLSCAASGSNFRINTMGWYRQAPGKQRELVAPVTRGGSTNYADSVKGRFTISRDNAKNTVYLQMNSLRPEDTAVYYCHVDEVRESSWTTSNLWGQGTQVTVSSGGGGSGGGGSGGGGSVQLQESGGGLVQPGGSLRLSCAASGSSFTINTMGWYRQAPGKQRELVAAVTRGGSTNYAGSVKGRFTISRDNAKNTIYLQMNSLRPEDTAVYYCHVDEIRQSSWTTSNLWGQGTQVTVSS displays pKd of 9.90
